Assayed System: Aryl hydrocarbon receptor (Homo sapiens) (UniProt P35869)
Sequence (P35869 whole entry, looked up): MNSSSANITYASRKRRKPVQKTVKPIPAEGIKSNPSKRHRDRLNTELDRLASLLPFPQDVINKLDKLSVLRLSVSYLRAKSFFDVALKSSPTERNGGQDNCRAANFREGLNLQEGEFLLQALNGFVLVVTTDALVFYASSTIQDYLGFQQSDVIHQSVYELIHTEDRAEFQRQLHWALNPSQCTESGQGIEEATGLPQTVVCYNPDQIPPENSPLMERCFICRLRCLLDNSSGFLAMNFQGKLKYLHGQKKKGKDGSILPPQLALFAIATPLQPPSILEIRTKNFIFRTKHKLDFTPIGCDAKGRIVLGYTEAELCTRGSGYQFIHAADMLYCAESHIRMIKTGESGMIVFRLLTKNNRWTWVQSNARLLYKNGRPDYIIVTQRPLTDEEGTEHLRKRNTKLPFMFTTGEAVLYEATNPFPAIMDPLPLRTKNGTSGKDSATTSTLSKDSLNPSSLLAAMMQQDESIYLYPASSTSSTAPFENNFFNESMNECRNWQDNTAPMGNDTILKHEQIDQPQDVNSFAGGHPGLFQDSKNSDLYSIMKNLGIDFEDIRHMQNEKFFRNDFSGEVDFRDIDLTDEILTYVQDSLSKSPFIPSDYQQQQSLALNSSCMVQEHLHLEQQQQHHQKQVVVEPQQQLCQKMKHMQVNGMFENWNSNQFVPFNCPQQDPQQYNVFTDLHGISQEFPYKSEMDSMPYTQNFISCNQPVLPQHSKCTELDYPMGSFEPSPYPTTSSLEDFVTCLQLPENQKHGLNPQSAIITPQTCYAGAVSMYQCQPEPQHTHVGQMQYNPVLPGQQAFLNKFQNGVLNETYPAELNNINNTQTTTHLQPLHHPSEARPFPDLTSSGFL
Assay Notes: AHR activators, primary screen, cell-based, luminescence, luciferase reporter, human (AID 2796);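 note: 0% = vehicle wells and 100% = reference agonist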
Condition Summary: AHR-responsive luciferase reporter cells, at 5 µM, stronger effect = higher value
Hit rate of the full screen: of about 320,000 compounds, about 8,000 (2.5%) were called active. This excerpt belongs to a sample that is enriched for actives.
Kind request: treat 10% as inclusive, so activation at 10% or higher is condition met, anything lower is condition not met.

These recorded examples may help you get a feel for the data.
Cc1c(C(=O)NCC(c2ccco2)N2CCCC2)oc2ccc(Cl)cc12 (stereo unspecified)	condition met
CCc1nn(-c2cc(Oc3cccc4ccccc34)nc(-c3ccccc3)n2)c(N)c1C#N	condition met

Request: Could you verify whether the entry O=C(O)c1cccc2c1C(=O)N(C1CCCC1)C2 shows activation of no less than 10%?
Response: condition not met

Request: Could you verify whether the entry CSc1ncccc1C(=O)NCC(c1ccco1)N1CCCCC1 (stereo unspecified) shows activation of no less than 10%?
Response: condition not met

Request: Could you verify whether the entry CCc1ccc(-c2cc(C(=O)NN3CCN(C)CC3)c3ccccc3n2)cc1 shows activation of no less than 10%?
Response: condition met

Request: Could you verify whether the entry CCOC(=O)c1c(C2CC2)csc1NC(=O)CSCc1c(C)noc1C shows activation of no less than 10%?
Response: condition met

----------
Assayed System: Aryl hydrocarbon receptor (Homo sapiens)
Assay Notes: AHR activators, primary screen, cell-based, luminescence, luciferase reporter, human (AID 2796);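 note: 0% = vehicle wells and 100% = reference agonist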
Condition Summary: AHR-responsive luciferase reporter cells, at 5 µM, stronger effect = higher value
Hit rate of the full screen: of about 320,000 compounds, about 8,000 (2.5%) were called active. The sample holds actives, similar compounds and a random draw of the others, so the mix is not that of the screen.
Observation Type: activation (%)
Give just the number in %; leave the unit off.

COc1ccc(-c2cc(C(=O)NCCCN3CCCC3=O)c3ccccc3n2)cc1OC	11.6
Cc1ccc(NC(=O)Nc2cccnc2)cc1	83.7
Cc1ccc(C2CCN(C(=S)Nc3cccc(Cl)c3)C2)cc1 (stereo unspecified)	0.22
Cc1cs/c(=N\N=C\c2ccc(O)cc2)n1Cc1ccco1	59.4
COc1cc(NC(=O)COC(=O)CSc2ccc3ccccc3c2)c(C)cc1[N+](=O)[O-]	60

Request: Report measured activation; entry is O=c1oc2c(Cl)cc(Cl)cc2cc1-c1nnc(Nc2ccccc2F)s1
Response: 10.5

Request: Report measured activation; entry is O=C(Nc1cccc2cccnc12)c1cccc(Cl)c1
Response: 59.2

Request: Report measured activation; entry is C/C(=N\Nc1nc(Nc2ccccc2)nc(N2CCOCC2)n1)c1cccs1
Response: 56.8

Request: Report measured activation; entry is Cc1cnc(C(=O)OCC(=O)Nc2ccc(Cl)cc2Cl)cn1
Response: 2.01

Request: Report measured activation; entry is COc1cc(NC(=O)C2CCN(c3cnccn3)CC2)cc(OC)c1
Response: 5.78

Request: Report measured activation; entry is N#Cc1ccc(C(=O)Nc2cccc3cccnc23)c(F)c1
Response: -3.07

Request: Report measured activation; entry is Cn1c(=O)c2c(SCC(=O)N3CCOCC3)nc(C3CC3)nc2n(C)c1=O
Response: 7.71

----------
Assayed System: Aryl hydrocarbon receptor (Homo sapiens) (UniProt P35869)
Assay Notes: AHR activators, primary screen, cell-based, luminescence, luciferase reporter, human (AID 2796);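 note: 0% = vehicle wells and 100% = reference agonist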
Condition Summary: AHR-responsive luciferase reporter cells, at 5 µM, stronger effect = higher value
The campaign covered roughly 320,000 compounds. About 8,000 (2.5%) were called active. Many of the other results were omitted from the sample, so actives are more common in it than they were.
Observation Type: activation (%)
Give just the number in %; leave the unit off.

Examples with their reported activation follow.
CC(=O)C1=C(O)C(=O)N(c2ccc(Br)cc2)C1c1ccc([N+](=O)[O-])cc1 (stereo not drawn)	62.3
O=C(Nc1ccncc1)c1cc2ccccc2o1	0.11

# ---- query compound ----
Request: Report measured activation; entry is Cc1cc(C(=O)Nc2nnc(C3CC3)s2)c(C)s1
Response: 23.6

----------
# activation per record follows
Assayed System: Aryl hydrocarbon receptor (Homo sapiens)
Assay Notes: AHR activators, primary screen, cell-based, luminescence, luciferase reporter, human (AID 2796);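 note: 0% = vehicle wells and 100% = reference agonist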
Condition Summary: AHR-responsive luciferase reporter cells, at 5 µM, stronger effect = higher value
About 8,000 (2.5%) of roughly 320,000 compounds were called active. The sample as a whole holds a higher share of actives than the screen did.
Give just the number in %; leave the unit off.

Cc1nc2ccccc2c(=O)n1NC(=O)c1ccccc1	-1.87

# ---- query compound ----
Request: Report measured activation; entry is Fc1ccc(-c2ccc(NCCN3CCOCC3)nn2)cc1
Response: 2.58

----------
Assayed System: Aryl hydrocarbon receptor (Homo sapiens) (UniProt P35869)
Assay Notes: AHR activators, primary screen, cell-based, luminescence, luciferase reporter, human (AID 2796);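 note: 0% = vehicle wells and 100% = reference agonist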
Condition Summary: AHR-responsive luciferase reporter cells, at 5 µM
The campaign covered roughly 320,000 compounds. About 8,000 (2.5%) were called active. Rule as the data show it: active = activation above about 47%; inactive = the rest. The sample holds actives, similar compounds and a random draw of the others, so the mix is not that of the screen.
Hi! Could you answer with just one of these? yes (1) (active), no (0) (inactive)

COc1ccc(CCNC(=O)C(=O)NCC2OCCN2S(=O)(=O)c2cccs2)cc1OC (centres undefined)	no (0)
C/C(=N\Nc1nc2ccccc2[nH]1)c1cccs1	no (0)
CSc1ccc(C#N)cc1NC(=O)c1cccc(Cl)c1	yes (1)
COc1ccccc1N1CCN(C(=O)Cn2nnc(-c3cccs3)n2)CC1	no (0)
C=CC1=C(C(=O)O)N2C(=O)[C@@H](NC(=O)/C(=N\OCC(=O)O)c3csc(N)n3)[C@H]2SC1	no (0)
COc1cc(NC(=O)COC(=O)c2cnc(C)cn2)c(C)cc1[N+](=O)[O-]	yes (1)
O=C(CCCOc1ccccc1)NCc1ccco1	no (0)
COc1ccc(S(=O)(=O)N2CCC(C(=O)NCc3ccco3)CC2)cc1C	no (0)
CC(C)[C@H](NC(=O)N1c2ccccc2NC(=O)[C@@H]1C(C)C)C(=O)N[C@H](C(=O)O)c1ccccc1	no (0)
Cc1nn(Cc2ccccc2)c(C)c1C(=O)NCCCN1CCCC1=O	no (0)

Request: Recorded call for Cc1cc(C)nc(SCc2nnc(SCC(=O)OC3CCCCC3)o2)n1 ?
Response: no (0)

Request: Recorded call for Cc1cccc(C)c1Nc1nnc(SCC(=O)NCCCN2CCCC2=O)s1 ?
Response: no (0)

Request: Recorded call for Cc1cc(NC(=O)COC(=O)COc2ccc(Cl)cc2C)c([N+](=O)[O-])cc1C ?
Response: no (0)

Request: Recorded call for Fc1ccc(NC(=S)N2CCc3[nH]c4ccccc4c3C2)cc1 ?
Response: no (0)

----------
# activation per record follows
Assayed System: Aryl hydrocarbon receptor (Homo sapiens)
Assay Notes: AHR activators, primary screen, cell-based, luminescence, luciferase reporter, human (AID 2796);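 note: 0% = vehicle wells and 100% = reference agonist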
Condition Summary: AHR-responsive luciferase reporter cells, at 5 µM, stronger effect = higher value
Screen size: about 320,000 compounds; about 8,000 (2.5%) were called active. This excerpt belongs to a sample that is enriched for actives.
Give just the number in %; leave the unit off.

Examples with their reported activation follow.
Cc1nnc2n1N=C(c1ccccc1)CS2	1.52
Cc1cccc2nc(CSc3nc4[nH]ncc4c(=O)n3-c3cccc(Cl)c3)cc(=O)n12	2.86
OC(COc1ccc(CN2CCSCC2)cc1)CN1CCCCC1 (stereo unspecified)	-1.38
CCNCCC(=O)N1c2ccccc2Sc2ccc(NC(=O)OCC)cc21	12.7

Request: Report measured activation; entry is CCNC(=S)N1CCC(c2nc3cc(C)c(C)cc3[nH]2)CC1
Response: 84.9

Request: Report measured activation; entry is CCN1/C(=C\c2ccc3ccccc3[n+]2CC)Sc2cc(C)ccc21
Response: -7.56

Request: Report measured activation; entry is COCCCNC(=S)N1CCCC(c2nc3cc(C)c(C)cc3[nH]2)C1 (stereo unspecified)
Response: 12.7

Request: Report measured activation; entry is CCOC(=O)N1CCN(Cc2nc3ccc([N+](=O)[O-])cc3c(=O)n2-c2cccc(OC)c2)CC1
Response: 32.6

Request: Report measured activation; entry is NC(=O)C1CCN(C(=O)COc2ccc3c4c(c(=O)oc3c2)CCC4)CC1
Response: -1.05

Request: Report measured activation; entry is CSc1ncccc1C(=O)Nc1cccc(S(=O)(=O)N2CCOCC2)c1
Response: -0.18

Request: Report measured activation; entry is CCN(CC)C(=O)COc1coc(CN2CCN(Cc3ccccc3)CC2)cc1=O
Response: -1.36

Data origin: PubChem BioAssay AID2796
